System under test: T1, Human syndecan-1 (CD138) on the cell surface (human, UniProt P18827 23-310)
T1 construct: Endogenous on H929, KMS-11 and RT112/84 cells or transfected into Expi293 cells; also called human CD138; hCD138
T1 sequence: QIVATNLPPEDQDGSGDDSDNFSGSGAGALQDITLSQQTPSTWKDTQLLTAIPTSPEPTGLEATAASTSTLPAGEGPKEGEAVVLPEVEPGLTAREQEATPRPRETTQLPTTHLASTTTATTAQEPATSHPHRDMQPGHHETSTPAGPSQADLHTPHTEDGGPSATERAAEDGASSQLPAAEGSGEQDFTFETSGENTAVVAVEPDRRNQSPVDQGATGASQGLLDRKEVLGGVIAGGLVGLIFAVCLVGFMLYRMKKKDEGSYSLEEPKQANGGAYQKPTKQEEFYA
Test description: FACS on KMS-11 cells, four parameter fit
Measured attribute: pEC50
Units for pEC50: none; it is -log10 of a concentration expressed in mol/L.

Request: Specify measured pEC50 for F6 f1kf-rep (antibody, V domains shown, Humanized F12P16F6 expressed as whole antibody with human constant regions (kappa light chain)) VH: QVQLQQSGAEVVKPGASVKLSCKASGYTFTSYYLYWVKKAPGQGLDWIGEIYPRSGGTNINEKFLSRVTLTADTSTSTAYMDLSSLTSEDTAVYYCTRSLLYWGQGTTLTVSS VL: DVVMTQSPLSLSVTLGQPASISCKSSQSLLASDGKTYLNWLQQRPGQSPRRLIYLVSKLDSGVPNRFSGSGSGTDFTLQISRVEAEDVGLYYCWQGAHFPFTFGSGTKLEIKR .
Response: 9.03

Request: Specify measured pEC50 for F6 f2kf-rep (antibody, V domains shown, Humanized F12P16F6 expressed as whole antibody with human constant regions (kappa light chain)) VH: QVQLQQSGAEVVKPGASVKLSCKASGYTFTSYYLYWVKKAPGQGLDWIGEIYPRSGGTNINEKFLSRVTITADESTSTVYMQLSSLTSEDSAVYYCTRSLLYWGQGTTLTVSS VL: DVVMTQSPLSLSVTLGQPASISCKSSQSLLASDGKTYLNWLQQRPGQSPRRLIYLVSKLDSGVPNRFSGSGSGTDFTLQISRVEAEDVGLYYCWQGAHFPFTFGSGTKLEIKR .
Response: 8.74

Request: Specify measured pEC50 for F6 f1ks-rep (antibody, V domains shown, Humanized F12P16F6 expressed as whole antibody with human constant regions (kappa light chain)) VH: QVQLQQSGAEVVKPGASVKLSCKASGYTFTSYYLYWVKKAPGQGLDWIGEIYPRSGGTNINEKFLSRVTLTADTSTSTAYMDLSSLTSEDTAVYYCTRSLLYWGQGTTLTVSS VL: DVVMTQTPLSLSVTPGQPASISCKSSQSLLASDGKTYLNWLLQRPGQSPKRLIYLVSKLDSGVPNRFSGSGSGTDFTLQISRVEAEDVGLYYCWQGAHFPFTFGSGTKLEIKR .
Response: 9.01
